target of assay: T1, human PD-L1 (Acro, Catalog Number: H5229) (human, UniProt Q9NZQ7 19-238)
T1 construct: Soluble antigen in the BLI assay; also called antigen
T1 sequence (Q9NZQ7 19-238 limits assumed): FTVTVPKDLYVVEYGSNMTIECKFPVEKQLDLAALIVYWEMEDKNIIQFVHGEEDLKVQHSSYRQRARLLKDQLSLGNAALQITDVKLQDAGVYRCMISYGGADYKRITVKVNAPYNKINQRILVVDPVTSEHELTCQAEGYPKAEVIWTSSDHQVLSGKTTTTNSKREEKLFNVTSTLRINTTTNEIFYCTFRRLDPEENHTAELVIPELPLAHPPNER
assay notes: BLI, Octet RED96e, antibody on AHC sensor, antigen 100 nM, 1:1 fit
Below, each of the binders is paired with its reported kon value.
Dear colleague, please return just the value in M⁻¹ s⁻¹, with no unit written.

{"binder": "1910G2HzL9H9 (antibody, V domains shown, Only the variable domains are tied to the name; Full chains are not tied to the name; also called humanized antibody 1910G2HzL9H9; 1910G2HzL9 + 1910G2HzH9) VH: EVQLVESGGGLVQPGGSLRLSCAASGFTFSNFWMSWVRQAPGKGLEWVASITHSGGITYYADSVKGRFTISRDDSKNTLYLQMNSLRAEDTAVYYCSRDPTEAPFDYWGQGTLVTVSS VL: DIQMTQSPSSLSASVGDRVTITCQASQNINNYIAWYQQKPGKAPKQLIRYTSTLVSGVPSRFSGSGSGKDFTFTISSLQPEDIATYYCLQYDNVPNTFGQGTKLEIK", "experimental value": 980000}

Turning now to a further binder:
[in] Please report the recorded kon for 1910G2HzL2H2 (antibody, V domains shown, Only the variable domains are tied to the name; Captured on an AHC sensor and detected with anti-human secondary antibody; also called humanized antibody 1910G2HzL2H2; 1910G2HzL2 + 1910G2HzH2) VH: EVQLVESGGGLVQPGGSLRLSCAASGFTFSNFWMTWVRQAPGKGLEWVASITHSGGITYYVDSVKGRFTISRDDAKSSLYLQMNSLRAEDTAVYYCSRDPTEAPFDYWGQGTLVTVSS VL: DIQMTQSPSSLSASVGDRVTITCQASQNINNYIAWYQQKPGKAPKQLIRYTSTLVSGVPSRFSGSGSGKDYTFTISSLQPEDIATYYCLQYDNVPNTFGQGTKLEIK .
[out] 1.03e+06
